Please respond with reported normalised response for every item in the list.
Tested on: CAL-85-1
Assay: normalised response (% of control), CellTiter-Glo; higher = more viable cells (100 = DMSO, 0 = benzethonium chloride kill control)
Conditions: incubation time: 72 h
One number for each entry, in %.

Completed entries (count: 6):
COc1cc(Nc2ncc(F)c(Nc3ccc4c(n3)NC(=O)C(C)(C)O4)n2)cc(OC)c1OC [Tamatinib] (1 nM)    97.9
Cc1cc(C(C)Nc2ccccc2)c2nc(N3CCOCC3)cc(=O)n2c1 (configuration not stated) [TGX-221] (1000 nM)    91.7
C[C@@H]1C=C2C(=O)O[C@@H]3CC[C@H](C1)[C@]23O [Galiellalactone] (5000 nM)    96.2
COC(=O)C[C@](O)(CCCC(C)(C)O)C(=O)O[C@@H]1C(OC)=C[C@]23CCCN2CCc2cc4c(cc2[C@H]13)OCO4 [Omacetaxine] (10 nM)    98.6
CCS(=O)(=O)c1cccc(-c2cc(C(=O)NC3CCN(C)CC3)c(C)c3[nH]c4ncc(C)cc4c23)c1 [TAK-901] (0.1 nM)    103
FC(F)c1nc2ccccc2n1-c1nc(N2CCOCC2)nc(N2CCOCC2)n1 [ZSTK474] (1 nM)    92.5

Next compound, please.
Ask: Notebook entry, CAL-85-1 assay: normalised response of CCS(=O)(=O)c1cccc(-c2cc(C(=O)NC3CCN(C)CC3)c(C)c3[nH]c4ncc(C)cc4c23)c1 [TAK-901] (1 nM) = ?
Reply: 98
